Hey, just so you know, these numbers are from ChEMBL document CHEMBL3580565.

- assay text: Oral bioavailability (0 to infinity) in Sprague-Dawley rat at 10 mg/kg by LC/MS/MS analysis
- Type: ADME, organism-based
- condition parameters: in vivo
experimental readout: bioavailability (%)

>  <smiles string>
Cc1noc(C)c1-c1cc2c(c3c1CCC3)NC(C)(C)C(=O)C2(C)C

>  <units of measure>
%

>  <endpoint value>
59

$$$$

---

- experimental system: Glucocorticoid receptor (Homo sapiens)
- Sequence (P04150 whole entry): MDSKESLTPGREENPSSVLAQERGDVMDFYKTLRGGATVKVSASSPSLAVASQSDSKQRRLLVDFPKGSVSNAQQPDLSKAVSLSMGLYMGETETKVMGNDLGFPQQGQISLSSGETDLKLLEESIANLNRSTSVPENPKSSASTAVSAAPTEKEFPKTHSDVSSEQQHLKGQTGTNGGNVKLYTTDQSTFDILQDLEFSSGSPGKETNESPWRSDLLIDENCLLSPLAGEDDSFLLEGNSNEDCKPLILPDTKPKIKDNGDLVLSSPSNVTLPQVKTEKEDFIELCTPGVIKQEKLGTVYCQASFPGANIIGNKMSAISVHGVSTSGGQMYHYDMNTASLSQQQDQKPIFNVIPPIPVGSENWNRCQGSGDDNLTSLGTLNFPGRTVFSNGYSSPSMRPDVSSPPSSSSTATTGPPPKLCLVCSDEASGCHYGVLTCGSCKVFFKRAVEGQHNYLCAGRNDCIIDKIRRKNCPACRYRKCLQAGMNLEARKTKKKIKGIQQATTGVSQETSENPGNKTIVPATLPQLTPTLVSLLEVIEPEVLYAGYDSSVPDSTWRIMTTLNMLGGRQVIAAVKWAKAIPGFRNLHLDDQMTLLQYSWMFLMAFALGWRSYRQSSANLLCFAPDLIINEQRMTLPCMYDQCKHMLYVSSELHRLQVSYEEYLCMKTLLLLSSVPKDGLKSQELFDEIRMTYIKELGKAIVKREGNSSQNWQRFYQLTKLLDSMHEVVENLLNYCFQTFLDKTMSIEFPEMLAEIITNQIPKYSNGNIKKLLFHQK
- assay text: Antagonist activity at human glucocorticoid receptor transfected in CHOK1 cells assessed as inhibition of dexamethasone-induced receptor transcriptional activity after 6 hrs by luciferase reporter gene assay

>  <smiles string>
Cc1ncn(C)c1-c1cc2c(c3c1CCC3)NC(C)(C)C(=O)C2(C)C

>  <units of measure>
nM

>  <prefix operator>
=

>  <IC50>
150

$$$$
>  <smiles string>
Cc1noc(C)c1-c1cc2c(c3c1CCCC3)NC(C)(C)C(=O)C2(C)C

>  <units of measure>
nM

>  <prefix operator>
=

>  <IC50>
167

$$$$
>  <smiles string>
CC1(C)Nc2c(cc(-c3cccn4nccc34)c3c2CCC3)C(C)(C)C1=O

>  <units of measure>
nM

>  <prefix operator>
=

>  <IC50>
84

$$$$
>  <smiles string>
CC1(C)Nc2c(cc(-c3cncc4nccn34)c3c2CCC3)C(C)(C)C1=O

>  <units of measure>
nM

>  <prefix operator>
=

>  <IC50>
93

$$$$
>  <smiles string>
Cc1noc(C)c1-c1cc2c(c3c1CCC3)NC(C)(C)C(=O)C2(C)C

>  <units of measure>
nM

>  <prefix operator>
=

>  <IC50>
30

$$$$
>  <smiles string>
Cc1noc(C)c1-c1ccc2c(c1)C(C)(C)C(=O)C(C)(C)N2

>  <units of measure>
nM

>  <prefix operator>
=

>  <IC50>
37

$$$$
>  <smiles string>
Cc1noc(C)c1-c1cc2c(cc1Cl)NC(C)(C)C(=O)C2(C)C

>  <units of measure>
nM

>  <prefix operator>
<

>  <IC50>
30

$$$$
>  <smiles string>
Cc1cnn(C)c1-c1cc2c(c3c1CCC3)NC(C)(C)C(=O)C2(C)C

>  <units of measure>
nM

>  <prefix operator>
=

>  <IC50>
128

$$$$
>  <smiles string>
CC1(C)Nc2c(cc(-c3cccc4nccn34)c3c2CCC3)C(C)(C)C1=O

>  <units of measure>
nM

>  <prefix operator>
=

>  <IC50>
21

$$$$
>  <smiles string>
CC1(C)Nc2c(cc(-c3cccc4nncn34)c3c2CCC3)C(C)(C)C1=O

>  <units of measure>
nM

>  <prefix operator>
=

>  <IC50>
91

$$$$
>  <smiles string>
CC1(C)Nc2c(cc(-c3ccnc4ncccc34)c3c2CCC3)C(C)(C)C1=O

>  <units of measure>
nM

>  <prefix operator>
=

>  <IC50>
53

$$$$
>  <smiles string>
Cc1noc(C)c1-c1cc2c(c3c1OCO3)NC(C)(C)C(=O)C2(C)C

>  <units of measure>
nM

>  <prefix operator>
=

>  <IC50>
77

$$$$
